From: patent US11718628B2

# test: Plasma and liver compound levels in mice after oral administration
# Assay type: in vivo
# condition.parameters: mouse, liver, 30 mg/kg, 30 mpk, 6 h, read-out: Liver ng/mg (6 h)
test.readout: concentration at 6 h

{"molecule": "CC(C)(O)c1cc(-c2cncc(-c3ccc(C(=O)N4CCC(O)CC4)cc3Cl)c2)ccn1 [Compound Z-796]", "concentration at 6 h": "> 1e+06 ng/g"}

Moving on to another molecule below.
GET /value?item= O=C(c1ccc(-c2cncc(-c3ccnc4c3OCCO4)c2)c(Cl)c1)N1CCC(O)CC1 [Compound Z-806] &field=concentration at 6 h returns > 1e+06 ng/g

---

Assign Oral Administration (PO) T1/2 to each entry below.
# test: In vivo pharmacokinetic properties in mice (IV and PO)
# Set-up: species or system C57BL/6J mice
# condition.parameters: mouse, in vivo, po, 10 mg/kg
# Method: The in vivo pharmacokinetic properties of compounds by both intravenous and oral administration were evaluated in male Sprague Dawley rats or C57BL/6J mice. Animals were housed in cages with clean bedding. Certified rodent diet was provided. […] […] The concentration of compound in the plasma of the animals was evaluated at 0.25, 0.5, 1, 2, 4, 6, 8, 12 and 24 hr by taking blood samples from the cannulated jugular vein (rats) or through a capillary, guided in retro-orbital plexus (mice).
Answers are plain numbers, in h.

These recorded examples may help you get a feel for the data.
{"molecule": "CC(C)OC(=O)Nc1ccc(-c2cncc(-c3ccnc(C(C)(C)C)c3)c2)c(Cl)c1 [Compound Z-774]", "test.readout": "Oral Administration (PO) T1/2", "meas.value": 6.79}
{"molecule": "CC1(O)CCN(C(=O)c2ccc(-c3cncc(-c4ccnc(C(C)(C)C)c4)c3)c(Cl)c2)CC1 [Compound Z-780]", "test.readout": "Oral Administration (PO) T1/2", "meas.value": 1.24}

// for each molecule below, give its Oral Administration (PO) T1/2
1. CC(C)(C)c1cc(-c2cncc(-c3ccc(C(=O)N4CCC(O)CC4)cc3Cl)c2)ccn1 [Compound Z-725]
2. CC(C)(C)c1cc(-c2cncc(-c3c(Cl)cc(C(=O)N4CCC(O)CC4)cc3Cl)c2)ccn1 [Z-826]

Result string:
[4.72, 6.2]
